- Target Or Test System: human serotonin transporter (Homo sapiens)
- Construct: expressed in transfected cells; host or cells: HEK-293
- Sequence (P31645 whole entry): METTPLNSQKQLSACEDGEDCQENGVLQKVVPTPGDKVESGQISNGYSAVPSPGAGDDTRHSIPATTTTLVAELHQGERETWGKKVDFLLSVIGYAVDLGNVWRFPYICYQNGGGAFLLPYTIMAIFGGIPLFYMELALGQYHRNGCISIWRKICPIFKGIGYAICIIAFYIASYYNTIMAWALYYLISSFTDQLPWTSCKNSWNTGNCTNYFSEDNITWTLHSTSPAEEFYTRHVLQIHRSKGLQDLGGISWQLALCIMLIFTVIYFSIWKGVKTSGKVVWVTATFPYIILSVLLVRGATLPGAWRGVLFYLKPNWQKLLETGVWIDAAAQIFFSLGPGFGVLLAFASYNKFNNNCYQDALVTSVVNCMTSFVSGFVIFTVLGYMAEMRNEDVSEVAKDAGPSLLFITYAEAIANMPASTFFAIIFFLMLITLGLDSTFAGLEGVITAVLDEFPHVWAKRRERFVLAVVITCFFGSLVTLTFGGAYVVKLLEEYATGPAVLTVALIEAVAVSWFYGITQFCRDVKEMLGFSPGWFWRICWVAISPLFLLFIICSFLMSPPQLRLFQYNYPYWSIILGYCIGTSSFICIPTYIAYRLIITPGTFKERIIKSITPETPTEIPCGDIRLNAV
- Assay Name: Serotonin transporter reuptake inhibition assay ([3H]Serotonin uptake)
- Assay type: cell-based
- Measurement Context: HEK293; 100 nM; recombinant HEK-293 cells with human serotonin transporter; read-out: Inhibition % at 100 nM 5-HT reuptake
Property Measured: inhibition at 0.1 µM (%)
Field: numeric (%). Do not append units.

COc1ccc2cc(C(CCN(C)C)n3ncnn3)ccc2c1 (stereo not drawn) :: 44
CNCC[C@@H](c1ccc(Cl)c(Cl)c1)n1nnc(C)n1 :: 43
CN(C)CCC(c1ccc2ccccc2c1)n1ncnn1 (stereo not drawn) :: 41
CNCCC(c1cc2ccccc2cc1OC)n1nnc(C)n1 (stereo not drawn) :: 47
CNCCC(c1ccc2cc(F)ccc2c1)n1nnc(C)n1 (stereo not drawn) :: 58
CNCCC(c1ccc2ccccc2c1)n1ncnn1 (stereo not drawn) :: 78

Query: For Cc1nnn(C(CCN(C)C)c2ccc3cc(F)ccc3c2)n1 (stereo not drawn) , what is its reported inhibition at 0.1 µM?
Response: 61

Query: What do we get for CNCCC(c1ccc2cc(C)ccc2c1)n1ncnn1 (stereo not drawn) ?
Response: 93

Query: Repeat for the following compound: CN(C)CCC(c1ccc(Cl)c(Cl)c1)n1ncnn1 (stereo not drawn)
Response: 27

Query: Note, next up: CNCCC(c1ccc2cc(F)ccc2c1)n1ncnn1 (stereo not drawn)
Response: 59

Query: Now consider CNCC[C@@H](c1ccc2ccccc2c1)n1nnc(C)n1 .
Response: 82

Query: Would you kindly repeat that for CN(C)CCC(c1ccc2cc(F)ccc2c1)n1ncnn1 (stereo not drawn) ?
Response: 61

Query: Do the same for CN(C)CCC(c1ccc2cc(Cl)ccc2c1)n1ncnn1 (stereo not drawn) please
Response: 46

Query: Input CNCCC(c1ccc2cc(OC)ccc2c1)n1nnc(C)n1 (stereo not drawn)
Response: 82

Query: Also need CNCCC(c1ccc2cc(OC)ccc2c1)n1ncnn1 (stereo not drawn) , thanks.
Response: 88

###

Entries and their inhibition at 0.1 µM values follow.
- Target Or Test System: human recombinant norepinephrine transporter (Homo sapiens)
- Construct: expressed in transfected cells; host or cells: MDCK
- Assay Name: Norepinephrine transporter reuptake inhibition assay ([3H]Norepinephrine uptake)
- Assay type: cell-based
- Measurement Context: 100 nM; MDCK cells with human recombinant norepinephrine transporter; read-out: Inhibition % at 100 nM NE reuptake
Give the value, in units of %, as a plain number.

CNCCC(c1ccc2cc(C)ccc2c1)n1ncnn1 (centres unmarked) :: 55

// next entry
Query: For the compound shown here, CN(C)CCC(c1ccc(Cl)c(Cl)c1)n1ncnn1 (centres unmarked) , give the reported inhibition at 0.1 µM.
Response: 37

###

- Target Or Test System: human recombinant dopamine transporter (Homo sapiens)
- Construct: expressed in transfected cells; host or cells: CHO-K1
- Sequence (Q01959 whole entry): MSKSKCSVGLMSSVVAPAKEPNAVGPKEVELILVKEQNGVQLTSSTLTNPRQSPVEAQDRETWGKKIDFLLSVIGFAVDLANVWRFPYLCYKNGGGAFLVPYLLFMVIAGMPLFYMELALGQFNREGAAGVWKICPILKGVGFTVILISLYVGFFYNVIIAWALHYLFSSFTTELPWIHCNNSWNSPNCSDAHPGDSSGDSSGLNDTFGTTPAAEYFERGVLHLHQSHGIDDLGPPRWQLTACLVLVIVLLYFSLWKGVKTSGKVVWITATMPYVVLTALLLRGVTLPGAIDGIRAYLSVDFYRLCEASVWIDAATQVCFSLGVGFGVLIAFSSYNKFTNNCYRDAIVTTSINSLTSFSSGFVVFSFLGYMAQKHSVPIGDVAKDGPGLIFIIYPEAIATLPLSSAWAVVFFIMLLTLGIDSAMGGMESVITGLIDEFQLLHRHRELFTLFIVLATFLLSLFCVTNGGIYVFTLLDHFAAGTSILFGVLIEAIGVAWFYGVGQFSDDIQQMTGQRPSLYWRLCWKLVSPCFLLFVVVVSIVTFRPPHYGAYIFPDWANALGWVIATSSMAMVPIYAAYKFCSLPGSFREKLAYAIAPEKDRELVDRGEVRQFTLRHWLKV
- Assay Name: Dopamine transporter reuptake inhibition assay ([3H]Dopamine uptake)
- Assay type: cell-based
- Measurement Context: 100 nM; CHO-K1 cells with human recombinant dopamine transporter; read-out: Inhibition % at 100 nM DA reuptake
Quick rule: inhibition at 0.1 µM of at least 20% means label 1, below that means label 0.

Example results:
CNCC[C@@H](c1ccc2ccccc2c1)n1nnc(C)n1 :: label 0
CNCC[C@@H](c1ccc(Cl)c(Cl)c1)n1nnc(C)n1 :: label 1
COc1ccc2cc(C(CCN(C)C)n3ncnn3)ccc2c1 (stereo not drawn) :: label 1

Query: hey, is inhibition at 0.1 µM for this one >= 20%? CNCCC(c1ccc2cc(OC)ccc2c1)n1ncnn1 (stereo not drawn)
Response: label 0

Query: # iterate: CN(C)CCC(c1ccc(Cl)c(Cl)c1)n1ncnn1 (stereo not drawn)
Response: label 1

Query: Next: CNCCC(c1ccc2ccccc2c1)n1ncnn1 (stereo not drawn)
Response: label 0

Query: Another molecule: CNCCC(c1ccc2cc(C)ccc2c1)n1ncnn1 (stereo not drawn)
Response: label 0

Query: Can you check CNCCC(c1ccc2cc(F)ccc2c1)n1ncnn1 (stereo not drawn) next?
Response: label 0

###

- Target Or Test System: human recombinant norepinephrine transporter (Homo sapiens, UniProt P23975)
- Construct: expressed in transfected cells; host or cells: MDCK
- Sequence (P23975 whole entry): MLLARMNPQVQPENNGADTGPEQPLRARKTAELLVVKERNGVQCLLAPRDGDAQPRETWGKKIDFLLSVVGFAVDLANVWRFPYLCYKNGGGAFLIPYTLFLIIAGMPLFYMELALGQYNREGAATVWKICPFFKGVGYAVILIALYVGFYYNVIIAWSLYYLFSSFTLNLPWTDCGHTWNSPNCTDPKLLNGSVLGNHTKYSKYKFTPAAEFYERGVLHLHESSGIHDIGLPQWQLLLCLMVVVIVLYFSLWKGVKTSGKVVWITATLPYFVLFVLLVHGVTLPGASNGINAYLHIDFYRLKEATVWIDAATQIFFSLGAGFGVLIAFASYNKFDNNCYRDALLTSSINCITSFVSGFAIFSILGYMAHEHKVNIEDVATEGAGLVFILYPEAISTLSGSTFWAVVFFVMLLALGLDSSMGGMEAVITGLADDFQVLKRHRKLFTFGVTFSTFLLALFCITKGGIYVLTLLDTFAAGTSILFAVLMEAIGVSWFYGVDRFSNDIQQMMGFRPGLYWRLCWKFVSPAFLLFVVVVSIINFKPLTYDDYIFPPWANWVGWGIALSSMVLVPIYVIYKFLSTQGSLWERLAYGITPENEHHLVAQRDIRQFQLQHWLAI
- Assay Name: Norepinephrine transporter reuptake inhibition assay ([3H]Norepinephrine uptake)
- Type: cell-based
- Measurement Context: 100 nM; MDCK cells with human recombinant norepinephrine transporter; read-out: Inhibition % at 100 nM NE reuptake
Property Measured: inhibition at 0.1 µM (%)
Respond with the bare value in %.

Consider the reported inhibition at 0.1 µM for these compounds:
CN(C)CCC(c1ccc2cc(F)ccc2c1)n1ncnn1 (stereo not drawn) :: 12
CNCCC(c1ccc2cc(F)ccc2c1)n1nnc(C)n1 (stereo not drawn) :: 39

Let us examine a further case.
Query: Fill blank: measured inhibition at 0.1 µM of the compound CNCCC(c1ccc2cc(OC)ccc2c1)n1ncnn1 (stereo not drawn) is ____.
Response: 70

###

- Target Or Test System: human recombinant dopamine transporter (Homo sapiens)
- Construct: expressed in transfected cells; host or cells: CHO-K1
- Assay Name: Dopamine transporter reuptake inhibition assay ([3H]Dopamine uptake)
- Type: cell-based
- Measurement Context: 100 nM; CHO-K1 cells with human recombinant dopamine transporter; read-out: Inhibition % at 100 nM DA reuptake
Property Measured: inhibition at 0.1 µM (%)
Report as a plain number; the unit % is understood.

Solved entries:
CN(C)CCC(c1ccc2ccccc2c1)n1ncnn1 (stereo not shown) [Example 6] :: 20
CN(C)CCC(c1ccc2cc(Cl)ccc2c1)n1ncnn1 (stereo not shown) [Example 14] :: 18
Cc1nnn(C(CCN(C)C)c2ccc3cc(F)ccc3c2)n1 (stereo not shown) [Example 51] :: 6
CN(C)CCC(c1ccc2cc(F)ccc2c1)n1ncnn1 (stereo not shown) [Example 50] :: 7
CNCCC(c1ccc2cc(OC)ccc2c1)n1nnc(C)n1 (stereo not shown) [Example 167] :: 3

Query: Which inhibition at 0.1 µM is reported for this molecule? CNCCC(c1ccc2cc(F)ccc2c1)n1nnc(C)n1 (stereo not shown) [Example 137]
Response: 10

Query: Also need CNCCC(c1cc2ccccc2cc1OC)n1nnc(C)n1 (stereo not shown) [Example 135] , thanks.
Response: -1

Values from patent US8101642B2
